Cited source: ChEMBL document CHEMBL1201862

Test system: KM12
Experiment: NCI tumour cell line growth inhibition, 48 h
Activity calls are given as the source filed them. No stated cut-off is given here; in the data, active = GI50 up to about 1.1 µM and inactive = higher.
In this exercise, the only acceptable responses are label 1 = active, label 0 = inactive

Recorded test outcome, item COc1ccc2c(c1)[n+]([O-])c(C(=O)C/C(=N/NC(=O)C[N+](C)(C)C)C(=O)Nc1cccc(C)c1C)c(C)[n+]2[O-]
label 0

How was C=CCC1(C)CCCN(Cc2ccccc2)C1=O (stereo unspecified) classified in this test?
label 0

Could you check what this test reported for CCN(CC)C(=S)N/N=C(\C)c1cccc(C)n1 ?
label 1

Check the results log: what was the call for NS(=O)(=O)c1ccc(NC(NC(=O)C(C(F)(F)F)C(F)(F)F)(C(F)(F)F)C(F)(F)F)cc1 ?
label 0

Could you please tell me the result logged for CC1(C)CC23C4COC(=O)C2CCC1C3CC4=O (stereo unspecified) in this assay?
label 0

Assay outcome for CC1(c2nc3ccccc3[nH]2)CCC(C(N)=O)C(C)(C)O1 (stereo unspecified) : what was it?
label 0

For [O-][n+]1ccccc1S , what call appears in the results of this test?
label 0

Please state the recorded outcome for this compound: O=C(NCCCNC(=O)c1ccc2cc(O)c(O)cc2c1)c1ccc2cc(O)c(O)cc2c1
label 0

How was N#Cc1nc(/C=C/c2cccs2)oc1N classified in this test?
label 0

Recorded test call requested for O=C1/C(=C\c2ccc(F)cc2)CCOc2c1ccc1ccccc21
label 0

// param item: CCC(=O)ONC(=O)Cn1ccc([N+](=O)[O-])n1 ; yields the recorded call
label 0
